# measured_target: NACHT, LRR and PYD domains-containing protein 3 (Homo sapiens)
# Sequence (Q96P20 whole entry, the tested form may be a part): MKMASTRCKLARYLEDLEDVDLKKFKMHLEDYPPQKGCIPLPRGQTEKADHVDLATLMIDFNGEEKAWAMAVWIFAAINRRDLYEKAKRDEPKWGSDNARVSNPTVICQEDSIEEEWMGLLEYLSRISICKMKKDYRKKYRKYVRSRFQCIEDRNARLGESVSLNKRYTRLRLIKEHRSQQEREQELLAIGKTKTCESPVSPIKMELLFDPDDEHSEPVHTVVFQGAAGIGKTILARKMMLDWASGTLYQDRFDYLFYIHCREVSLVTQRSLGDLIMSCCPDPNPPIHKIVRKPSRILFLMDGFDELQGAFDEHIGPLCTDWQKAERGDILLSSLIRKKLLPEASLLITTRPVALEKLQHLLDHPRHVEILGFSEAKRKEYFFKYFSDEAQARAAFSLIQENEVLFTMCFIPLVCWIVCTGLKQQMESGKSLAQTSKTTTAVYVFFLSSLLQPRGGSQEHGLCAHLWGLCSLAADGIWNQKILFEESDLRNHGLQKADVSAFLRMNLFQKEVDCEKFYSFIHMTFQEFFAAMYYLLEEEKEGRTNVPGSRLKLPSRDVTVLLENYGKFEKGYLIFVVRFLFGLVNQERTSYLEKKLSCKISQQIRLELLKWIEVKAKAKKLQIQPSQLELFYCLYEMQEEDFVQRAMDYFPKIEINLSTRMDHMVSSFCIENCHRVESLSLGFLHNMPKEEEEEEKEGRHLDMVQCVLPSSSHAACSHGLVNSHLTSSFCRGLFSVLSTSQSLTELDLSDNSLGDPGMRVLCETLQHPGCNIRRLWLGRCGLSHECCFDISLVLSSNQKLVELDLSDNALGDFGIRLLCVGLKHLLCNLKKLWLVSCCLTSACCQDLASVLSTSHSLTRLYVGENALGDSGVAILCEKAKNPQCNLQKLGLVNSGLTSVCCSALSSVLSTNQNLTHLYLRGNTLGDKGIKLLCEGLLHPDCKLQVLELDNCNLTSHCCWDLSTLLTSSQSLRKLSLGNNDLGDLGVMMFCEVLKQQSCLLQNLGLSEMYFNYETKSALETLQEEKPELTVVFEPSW
# test_details: Inhibition of NLRP3 in human THP-1 cells assessed as reduction in IL-1beta production pre incubated for 3 hrs followed by nigericin addition measured after 1 hrs by resazurin staining based assay
# Format: cell-based
pIC50: −log10 of the molar value.

>  <smiles_input>
CN(C)Cc1cc(S(=O)(=O)NC(=O)Nc2c3c(cc4c2CCC4)CCC3)nn1C1CC1

>  <pIC50>
≥ 7.40

$$$$
>  <smiles_input>
COc1cc(C)c(S(=O)(=O)NC(=O)Nc2c3c(cc4c2CCC4)CCC3)cn1

>  <pIC50>
> 6.00

$$$$
>  <smiles_input>
CCN1CCC(S(=O)(=O)NC(=O)Nc2c3c(cc4c2CCC4)CCC3)CC1

>  <pIC50>
≥ 6.00

$$$$
>  <smiles_input>
CN1CCC(Oc2cc(-c3ccc4c(c3NC(=O)NS(=O)(=O)C3CC3)CCC4)ccn2)CC1

>  <pIC50>
≥ 6.60

$$$$
